Data origin: PubChem BioAssay (NCI)

# Tested on: PC-3 prostate
# measurement_protocol: NCI-60 one-dose screen, 48 h (100 = growth as untreated, 0 = no growth, -100 = all killed)
# condition_info: 10 µM unless noted
About 83,000 compounds went through this panel and 20% of them were active in at least one assay; those are over-represented in the sample as a whole.
Label YES when growth < 30%; otherwise NO.

// known answers, use as guide
> print(dat)
                                   compound  class.name
1  Cc1ccc(C2=Nc3c(N)nc(N)nc3NC(c3cccc(Nc4ccnc5cc(C(F)(F)F)ccc45)c3)C2)cc1 (stereo not given)         YES
2  CCN1C(=O)N(CC)C2C1NC(=S)N2/N=C/C=C/c1ccccc1 (stereo not given)         YES
3  N#CC1=C(N)Oc2c(ccc3ccccc23)C1c1cc2ccccc2n2nnnc12 (stereo not given)         YES
4  O=c1c(/C=C/c2c(O)ccc3ccccc23)nnc2sc(-c3cccc([N+](=O)[O-])c3)nn12          NO

Does this compound meet the criterion growth < 30%? CCOC(=O)C1=C(C)N(C)C(=O)N(C)C1c1ccccc1 (stereo not given)
NO

Consider CCn1c2ccccc2c2cc(C(O)c3cccc4ncccc34)ccc21 (stereo not given) . Does its growth lie strictly below 30%?
YES

Confirm or reject: growth of CN1CC(c2ccccc2)C(C(=O)c2ccc(Br)cc2)C12C(=O)Nc1ccccc12 (stereo not given) lies strictly below 30%
NO

Record O=C1/C(=C/c2ccc(Br)cc2)COc2ccc(O)cc21 : is its growth strictly below 30%?
NO

Say whether its growth is strictly beneath 30%. Entry: COc1ccc(/C=C\c2cc(OC)c(OC)c(OC)c2)cc1OCC(=O)Nc1nc2ccccc2s1
NO

Strictly below 30% in growth? COc1ccc(C(=O)C2OC3=C(C(=O)CC(C)(C)C3)C2c2cccc(Oc3ccccc3)c2)cc1 (stereo not given)
NO

Criterion: growth strictly below 30%. Is it met by CN1CCN(Cc2ccc(NC(=O)c3cncc(C#Cc4cnc(N)c5ncccc45)c3)cc2Cl)CC1 ?
NO

----------
# Tested on: SNB-19 CNS
# measurement_protocol: NCI-60 one-dose screen, 48 h (100 = growth as untreated, 0 = no growth, -100 = all killed)
# condition_info: 10 µM unless noted
About 83,000 compounds went through this panel and 20% of them were active in at least one assay; those are over-represented in the sample as a whole.
experimental_endpoint: growth (%)
Reply numerically in %, unit not repeated.

These recorded examples may help you get a feel for the data.
> print(dat)
                                   compound  experimental.endpoint  readout.units  readout.value
1  COc1ccc(C(=O)C2OC3=C(C(=O)CC(C)(C)C3)C2c2cccc(Oc3ccccc3)c2)cc1 (stereo not given)                 growth              %           92.8
2          Nc1nc(=O)n([C@H]2CC=C(CO)O2)cc1F                 growth              %           96.3
3  CCN(CC)CCN1C(=O)c2c(c(C)c3c(oc4cc(OC)ccc43)c2C)C1=O                 growth              %           87.6

Consider the compound shown here: NCCNc1ccc([N+](=O)[O-])cc1 What is its recorded growth?
101

Would you kindly share the measured growth for O=C(O)COc1ccc(F)cc1 ?
99.8

Quick check: growth of O=C(CNc1ncco1)Nc1ccc(S(=O)(=O)c2ccc(NC(=O)CNc3ncco3)cc2)cc1 ?
19.7

GET /values?readout=growth&item= O=C(Nc1cccc2c1C(=O)c1cccc(NC(=O)c3ccc(C(=O)Nc4cccc5c4C(=O)c4cccc(NC(=O)c6ccccc6)c4C5=O)cc3)c1C2=O)c1ccccc1
105

// query growth value for entry CC(C)n1nc(-c2ccc3oc(N)nc3c2)c2c(N)ncnc21
0.364

Which growth is reported for this compound? c1ccc(-c2nc(N3CCNCC3)c3oc(-c4ccccc4)nc3n2)cc1
-27.9

I am curious: what growth value has been reported for O=C(Nc1ncc(Cc2ccccc2)s1)c1ccc2c(c1)OCCO2 ?
35.4

----------
# Test system: RPMI-8226 leukemia
# measurement_protocol: NCI-60 one-dose screen, 48 h
# condition_info: 10 µM unless noted
# Protocol: Growth inhibition of the RPMI-8226 human tumor cell line is measured as a screen for anti-cancer activity. Cells are grown in 96 well plates and exposed to the test compound for 48 hours. Compounds are tested at a single concentration, which is 10^-5 M for most compounds. The reported endpoint is percent growth (GI% or GIPRCNT), where numbers from 0 - 100% represent growth inhibition, and numbers from -100% - 0 represent cell death. For example, a value of 40 represents 60% growth inhibition. […]
This is part of a sample that, as a whole, favours compounds with a hit. Of some 83,000 tested, about 20% had one in any assay. The source made the active and inactive calls. How the source made its calls: active means growth percent below 10; inactive means the rest.
Allowed answers: active, inactive

Recorded test outcome, item O=C(Nc1cccc2c1C(=O)c1cccc(NC(=O)c3ccc(C(=O)Nc4cccc5c4C(=O)c4cccc(NC(=O)c6ccccc6)c4C5=O)cc3)c1C2=O)c1ccccc1
inactive

Which outcome was entered for the compound Cc1ccc(-c2nn(CC(=O)N3CCOCC3)c(N)c2C#N)cc1 in this test?
inactive

Look up the recorded call for O=c1c(/C=C/c2c(O)ccc3ccccc23)nnc2sc(-c3cccc([N+](=O)[O-])c3)nn12 in this test.
inactive

Assay result, entry CC1=C2[C@@H](CC1)[C@]1(C)O[C@@](C(C)C)(C[C@H]1OC(=O)CO)[C@H]2OC(=O)CCCc1ccccc1 — outcome?
inactive

Would you mind telling me which call this test gave Cc1ccc(NC(=O)c2ccc(Nc3ncnc4c3cnn4-c3cccc(F)c3)cc2)cc1 ?
inactive

// param item: O=C(CSc1nc(-c2ccccc2)cn1-c1ccc(Cl)cc1)c1ccc([N+](=O)[O-])cc1 ; yields the recorded call
inactive

Which outcome did this test record for the compound Nc1ccc(N)c2c1C(=O)c1cccc([N+](=O)[O-])c1C2=O ?
inactive

What did the test return for Cc1cccc(C)c1NC(=O)Nc1ccccc1 ?
inactive

Hi team, can someone confirm the assay call for COC12C=C/C(=C(/C(=O)OCc3ccccn3)C(=O)CCCCCCCCC3(OC)C=C/C(=C(/C(=O)OCc4ccccn4)C(=O)CCCCCCCC1)O3)O2 ?
active

----------
# System: CAKI-1 renal
# measurement_protocol: NCI-60 one-dose screen, 48 h
# condition_info: 10 µM unless noted
Compounds without any hit were thinned out: in the full panel of roughly 83,000, 20% have a hit. Active and inactive are the calls of the source. How the source made its calls: active means growth percent below 10; inactive means the rest.
Hello, when you answer, please use one of the following outcomes: true = active, false = inactive

Below are worked cases with known answers.
> print(dat)
                                   compound  class.name
1       O=C(O)c1nn(-c2ccc(Cl)cc2)nc1N1CCCC1       false
2  Cn1cc(-c2nc(-c3c[nH]c4ccncc34)cs2)c2cc(F)ccc21        true
3  O=C1OCC2=C1C(c1cccc(F)c1)c1cc3c(cc1N2CCO)CCC3 (stereo not given)       false
4  COc1cc(-c2ccc(-c3ccc(C(=N)N)s3)s2)cc(OC)c1OC       false
5  COc1ccc2c(c1)C(c1c[nH]c3ccccc13)(c1c[nH]c3ccccc13)CCO2       false
6  COc1ccc(C(=O)C2OC3=C(C(=O)CC(C)(C)C3)C2c2cccc(Oc3ccccc3)c2)cc1 (stereo not given)       false
7  O=c1n(C2OC(CO)C(O)C2O)ccc2nccn12 (stereo not given)       false
8          Cc1cccc(CN(Nc2ccccc2)c2ccccc2)n1       false

What was the test verdict on C#Cc1cccc(Nc2ncnc3ccc(-c4cnc(Cl)c(NS(C)(=O)=O)c4)cc23)c1 ?
true

Tell me the recorded outcome of this test for O=C(Nc1ccccc1CNc1nc(Nc2ccc(OCCN3CCCC3)cc2)ncc1Cl)NC1CCCCC1 .
false

----------
# Test system: ACHN renal
# measurement_protocol: NCI-60 one-dose screen, 48 h
# condition_info: 10 µM unless noted
The panel holds about 83,000 compounds, 20% with a hit somewhere; the sample as a whole holds those more often. Active and inactive are the calls of the source. The calls were made as follows: active = growth percent below 10; inactive = the rest.
Outcome field: choose from label 1 = active, label 0 = inactive

Reference set (3 entries):
> print(dat)
                                   molecule  system.name  class.name
1  COC(=O)CNC(=O)c1ccc(NC(=O)c2[nH]c(C)c(Cl)c2Cl)c(O[C@H]2CCNC2)c1   ACHN renal     label 0
2  COc1ccc(-c2csc(NC(=O)CSc3nc(C)cc(=O)[nH]3)n2)cc1   ACHN renal     label 0
3  CC(=O)Oc1ccccc1C(=O)N(Cc1ccc2c(Cl)cc(Cl)c(O)c2n1)c1ccccc1   ACHN renal     label 0

Please indicate how the test categorized N#C/C(=N\Nc1ccccc1)C(=O)Nc1cc(-c2ccccc2)nn1-c1ccccc1 .
label 0

Record lookup: outcome of this test for CCNc1nc(-c2ccc(Cl)c(OC)c2)c(-c2ccnc(NCCNS(=O)(=O)c3ccc(Cl)cc3)n2)s1 ?
label 0

Tell me the recorded outcome of this test for COc1ccc(S(=O)(=O)NC2c3ccccc3CC2O)cc1OC (centres undefined) .
label 0

What call does the record list for C=CCOC(=O)C1=C(C)N(CC)C(=O)N(CC)C1c1c(Cl)n(C)c2ccccc12 (centres undefined) ?
label 0

Any idea what this test logged for Cc1ccc2nc(/C=C/c3ccc(N(C)C)cc3)cc(C)c2c1 ?
label 0

Hi, do you know how CCN1C(=O)N(CC)C2C1NN=c1s/c(=C\c3ccc(F)cc3)c(=O)n12 (centres undefined) came out in this test?
label 0

Query: recorded result category for Cc1ccc(C2(C)NC(=O)N(CC(=O)Nc3cccc(C)c3)C2=O)cc1 (centres undefined) in this test
label 0

Write down the call the test reported for this molecule. Item: COc1cccc(-c2cc(-c3ccc(Nc4nc(Nc5ccc(Cl)cc5)nc(Nc5ccc(Cl)cc5)n4)cc3)nc(N)c2C#N)c1
label 0
